Each entry below lists one item and its recorded pIC50 value.
# ASSAY_SYSTEM: PI3K-α (PIK3CA) wild-type (WT), p110α/p85α complex (Homo sapiens, UniProt P42336)
# Construct: Recombinant, catalytically active human full length PIK3KA Wild-type and H1047R mutant; 6×His (N); purchased EMD Millipore Sigma 14-602M
# EXPERIMENT_DESCRIPTION: PI3K-alpha kinase (PIK3CA) biochemical activity, ADP-Glo, wild-type
# RUN_PARAMETERS: Soy PI lipid substrate
pIC50: −log10 of the molar value.

- MOLECULE: "Cc1cc(C(C)Nc2ccccc2C(=O)O)c2oc(-c3cc4ccccc4[nH]3)cc(=O)c2c1 (single isomer, unassigned)"
  pIC50: "6.00 to 6.30"
- MOLECULE: "Cc1cc(C(C)Nc2ccccc2C(=O)O)c2oc(-c3ccc4cc[nH]c4c3)cc(=O)c2c1 (single isomer, unassigned) [Example 21]"
  pIC50: "6.00 to 6.30"
- MOLECULE: "Cc1cc(C(C)Nc2ccccc2C(=O)O)c2oc(-c3cc4ccncc4o3)cc(=O)c2c1 (single isomer, unassigned) [Example 40]"
  pIC50: "5.00 to 5.30"
- MOLECULE: "Cc1cc(C(C)Nc2ccccc2C(=O)O)c2oc(-c3ccc4cn(C)nc4n3)cc(=O)c2c1 (single isomer, unassigned)"
  pIC50: "5.00 to 5.30"
- MOLECULE: "Cc1cc(C(C)Nc2ccccc2C(=O)O)c2oc(-c3ccc4[nH]c(C)nc4c3)cc(=O)c2c1 (single isomer, unassigned)"
  pIC50: "5.30 to 6.00"
- MOLECULE: "Cc1cc([C@@H](C)Nc2cccc(F)c2C(=O)O)c2oc(-c3ccc4cc[nH]c4n3)cc(=O)c2c1"
  pIC50: "6.00 to 6.30"
- MOLECULE: "Cc1cc(C(C)Nc2ccccc2C(=O)O)c2oc(-c3ccc4nn(C)cc4n3)cc(=O)c2c1 (single isomer, unassigned)"
  pIC50: "5.30 to 6.00"
- MOLECULE: "CC(Nc1ccccc1C(=O)O)c1cc(F)cc2c(=O)cc(-c3ccc4nn(C)cc4c3)oc12 (single isomer, unassigned) [Example 55]"
  pIC50: "5.30 to 6.00"
- MOLECULE: "Cc1cc(C(C)Nc2ccccc2C(=O)O)c2oc(-c3ccc4c(c3)NC(=O)C4)cc(=O)c2c1 (single isomer, unassigned)"
  pIC50: "5.30 to 6.00"
- MOLECULE: "Cc1cc(C(C)Nc2ccccc2C(=O)O)c2oc(-c3ccc4nn(C)cc4c3)cc(=O)c2c1 (stereo not drawn) [Example 13]"
  pIC50: "> 6.30"

Query: Output pIC50 of Cc1cc(C(C)Nc2ccccc2C(=O)O)c2oc(-c3ccc4nccn4n3)cc(=O)c2c1 (single isomer, unassigned) [Example 36]
Response: 5.30 to 6.00

Query: Output pIC50 of Cc1cc(C(C)Nc2ccccc2C(=O)O)c2oc(-c3ccc4cn[nH]c4c3)cc(=O)c2c1 (single isomer, unassigned)
Response: 6.00 to 6.30

Query: Output pIC50 of Cc1cc(C(C)Nc2ccc(Cl)nc2C(=O)O)c2oc(-c3ccc4nn(C)cc4c3)cc(=O)c2c1 (single isomer, unassigned) [Example 83]
Response: 6.00 to 6.30

Query: Output pIC50 of Cc1cc(C(C)Nc2ccccc2C(=O)O)c2oc(-c3ccc4nnc(C(C)C)n4c3)cc(=O)c2c1 (single isomer, unassigned)
Response: < 5.00

Query: Output pIC50 of Cc1cc([C@@H](C)Nc2ccc(C(F)(F)F)cc2C(=O)O)c2oc(-c3ccc4nc(C)sc4n3)c(C)c(=O)c2c1
Response: 5.30 to 6.00

###

# ASSAY_SYSTEM: PI3K-α (PIK3CA) H1047R mutant, p110α/p85α complex (Homo sapiens, UniProt P42336, H1047R)
# Construct: Recombinant, catalytically active human full length PIK3KA Wild-type and H1047R mutant; 6×His (N); purchased EMD Millipore Sigma 14-792M
# Sequence (P42336 whole entry H1047R): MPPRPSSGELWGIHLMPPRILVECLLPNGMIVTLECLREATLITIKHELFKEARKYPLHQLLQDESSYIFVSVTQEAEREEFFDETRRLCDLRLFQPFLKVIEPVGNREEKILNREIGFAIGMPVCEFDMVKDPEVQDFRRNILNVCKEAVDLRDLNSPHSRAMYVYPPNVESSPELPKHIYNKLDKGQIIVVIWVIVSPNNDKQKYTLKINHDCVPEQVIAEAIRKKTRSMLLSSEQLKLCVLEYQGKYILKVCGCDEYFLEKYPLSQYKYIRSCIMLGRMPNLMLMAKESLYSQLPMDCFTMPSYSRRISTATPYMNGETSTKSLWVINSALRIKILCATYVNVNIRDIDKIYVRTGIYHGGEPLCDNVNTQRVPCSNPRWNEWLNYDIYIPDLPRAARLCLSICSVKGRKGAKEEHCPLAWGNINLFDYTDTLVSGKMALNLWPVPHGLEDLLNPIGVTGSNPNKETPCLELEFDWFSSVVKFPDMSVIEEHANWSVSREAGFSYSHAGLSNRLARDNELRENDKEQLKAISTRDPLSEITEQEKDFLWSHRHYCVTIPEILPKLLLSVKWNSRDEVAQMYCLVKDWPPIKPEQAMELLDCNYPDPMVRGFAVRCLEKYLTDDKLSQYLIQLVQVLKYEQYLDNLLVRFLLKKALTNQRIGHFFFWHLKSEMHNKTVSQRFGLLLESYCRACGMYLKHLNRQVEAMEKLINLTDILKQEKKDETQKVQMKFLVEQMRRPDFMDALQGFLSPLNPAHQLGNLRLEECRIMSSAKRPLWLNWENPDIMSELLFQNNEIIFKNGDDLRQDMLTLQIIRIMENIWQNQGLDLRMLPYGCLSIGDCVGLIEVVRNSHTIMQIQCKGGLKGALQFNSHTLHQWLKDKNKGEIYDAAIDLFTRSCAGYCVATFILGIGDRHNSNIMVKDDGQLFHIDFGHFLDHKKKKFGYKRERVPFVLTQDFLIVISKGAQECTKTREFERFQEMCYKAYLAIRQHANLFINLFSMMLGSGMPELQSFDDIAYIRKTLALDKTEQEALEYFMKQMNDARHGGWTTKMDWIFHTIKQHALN
# Sequence (P27986 whole entry partner): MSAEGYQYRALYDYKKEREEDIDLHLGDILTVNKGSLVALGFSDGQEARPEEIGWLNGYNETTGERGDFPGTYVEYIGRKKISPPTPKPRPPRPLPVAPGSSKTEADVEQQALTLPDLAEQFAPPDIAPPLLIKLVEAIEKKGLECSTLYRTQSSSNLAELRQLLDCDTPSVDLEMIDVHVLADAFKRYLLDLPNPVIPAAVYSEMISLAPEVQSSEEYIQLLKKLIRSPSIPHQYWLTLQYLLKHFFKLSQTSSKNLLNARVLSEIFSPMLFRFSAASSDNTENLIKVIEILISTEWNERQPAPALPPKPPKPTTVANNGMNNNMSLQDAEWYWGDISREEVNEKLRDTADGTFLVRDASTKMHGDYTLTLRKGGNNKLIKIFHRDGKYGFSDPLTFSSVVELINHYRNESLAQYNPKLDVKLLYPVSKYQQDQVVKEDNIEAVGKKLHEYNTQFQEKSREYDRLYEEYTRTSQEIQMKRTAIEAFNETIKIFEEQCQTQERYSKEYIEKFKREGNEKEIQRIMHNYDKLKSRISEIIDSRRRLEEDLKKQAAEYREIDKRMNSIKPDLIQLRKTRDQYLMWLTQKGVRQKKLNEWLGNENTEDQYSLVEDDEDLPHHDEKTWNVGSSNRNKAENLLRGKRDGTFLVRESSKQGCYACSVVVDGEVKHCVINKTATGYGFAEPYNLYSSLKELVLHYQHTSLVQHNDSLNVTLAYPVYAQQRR
# EXPERIMENT_DESCRIPTION: PI3K-alpha kinase (PIK3CA) biochemical activity, ADP-Glo, H1047R mutant
# RUN_PARAMETERS: Soy PI lipid substrate
pIC50: −log10 of the molar value.
ENDPOINT_LABEL: pIC50

Some solved cases for reference:
- COMPOUND: "Cc1cc(C(C)Nc2ccc(Cl)c(F)c2C(=O)O)c2oc(-c3ccc4nn(C)cc4c3)cc(=O)c2c1 (single isomer, unassigned) [Example 184]"
  pIC50: "> 6.30"
- COMPOUND: "Cc1cc(C(C)Nc2ccccc2C(=O)O)c2oc(-c3ccc4[nH]nc(C)c4c3)cc(=O)c2c1 (single isomer, unassigned) [Example 61]"
  pIC50: "> 6.30"
- COMPOUND: "Cc1cc(C(C)Nc2ccccc2C(=O)O)c2oc(-c3nccn4cccc34)cc(=O)c2c1 (single isomer, unassigned) [Example 105]"
  pIC50: "> 6.30"

Now turn to the next compound.
Query: Output pIC50 of Cc1cc([C@@H](C)Nc2ccc(C(F)(F)F)cc2C(=O)O)c2oc(-c3ccc4nc(C)sc4n3)c(C)c(=O)c2c1 [Example 234]
Response: 5.30 to 6.00

###

# ASSAY_SYSTEM: PI3K-α (PIK3CA) in MDA-MB-453 cells (Homo sapiens, UniProt P42336)
# Sequence (P42336 whole entry, one chain of several): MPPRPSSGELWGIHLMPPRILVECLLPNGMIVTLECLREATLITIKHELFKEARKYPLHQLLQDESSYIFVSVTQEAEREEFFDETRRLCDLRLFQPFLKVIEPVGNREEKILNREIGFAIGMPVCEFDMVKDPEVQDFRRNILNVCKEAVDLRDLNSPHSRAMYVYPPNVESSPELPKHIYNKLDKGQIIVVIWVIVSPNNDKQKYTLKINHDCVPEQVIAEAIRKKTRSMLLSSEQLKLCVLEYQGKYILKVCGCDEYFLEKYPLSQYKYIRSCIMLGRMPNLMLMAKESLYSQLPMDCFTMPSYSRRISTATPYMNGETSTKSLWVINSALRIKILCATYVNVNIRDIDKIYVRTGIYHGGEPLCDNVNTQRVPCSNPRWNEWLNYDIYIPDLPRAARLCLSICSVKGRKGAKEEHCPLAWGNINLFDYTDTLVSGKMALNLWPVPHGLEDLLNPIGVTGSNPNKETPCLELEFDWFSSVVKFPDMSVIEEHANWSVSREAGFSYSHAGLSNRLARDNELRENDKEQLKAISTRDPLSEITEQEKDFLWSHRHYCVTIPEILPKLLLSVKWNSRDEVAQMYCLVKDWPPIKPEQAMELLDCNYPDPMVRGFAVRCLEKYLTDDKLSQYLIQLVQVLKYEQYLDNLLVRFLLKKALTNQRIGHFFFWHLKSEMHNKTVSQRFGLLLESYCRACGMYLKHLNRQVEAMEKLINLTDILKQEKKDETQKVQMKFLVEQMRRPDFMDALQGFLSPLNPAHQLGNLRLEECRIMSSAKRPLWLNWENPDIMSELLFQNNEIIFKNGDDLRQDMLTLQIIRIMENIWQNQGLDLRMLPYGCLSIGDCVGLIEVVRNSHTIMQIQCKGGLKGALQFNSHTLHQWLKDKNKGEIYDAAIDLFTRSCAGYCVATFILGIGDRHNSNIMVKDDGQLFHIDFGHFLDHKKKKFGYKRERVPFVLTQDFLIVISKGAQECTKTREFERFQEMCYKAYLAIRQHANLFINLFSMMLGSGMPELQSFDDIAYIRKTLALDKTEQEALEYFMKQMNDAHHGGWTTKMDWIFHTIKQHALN
# EXPERIMENT_DESCRIPTION: PI3K-alpha kinase (PIK3CA) in vitro cell based assay, MDA-MB-453 cells, SureFire Ultra AlphaLisa
# RUN_PARAMETERS: read-out: PI3K-α (PIK3CA) in vitro cell based assay IC50
ENDPOINT_LABEL: IC50

Some solved cases for reference:
- MOLECULE: "Cc1cc([C@@H](C)Nc2ccc(F)cc2C(=O)O)c2oc(-c3ccc4nn(C)cc4c3)c(C)c(=O)c2c1"
  ASSAY_SYSTEM: "PI3K-α (PIK3CA) in MDA-MB-453 cells (Homo sapiens, UniProt P42336)"
  IC50: "< 50 nM"
- MOLECULE: "Cc1cc([C@@H](C)Nc2ccccc2C(=O)O)c2oc(-c3ccc4nn(Cc5ccccc5)cc4c3)c(C)c(=O)c2c1"
  ASSAY_SYSTEM: "PI3K-α (PIK3CA) in MDA-MB-453 cells (Homo sapiens, UniProt P42336)"
  IC50: "< 50 nM"
- MOLECULE: "Cc1cc(C(C)Nc2ccccc2C(=O)O)c2oc(-c3ccc4cn[nH]c4c3)c(C)c(=O)c2c1 (single isomer, unassigned)"
  ASSAY_SYSTEM: "PI3K-α (PIK3CA) in MDA-MB-453 cells (Homo sapiens, UniProt P42336)"
  IC50: "< 50 nM"
- MOLECULE: "Cc1cc(C(C)Nc2ccccc2C(=O)O)c2oc(-c3ccc4nn(C)cc4c3)cc(=O)c2c1 (single isomer, unassigned) [Example 8]"
  ASSAY_SYSTEM: "PI3K-α (PIK3CA) in MDA-MB-453 cells (Homo sapiens, UniProt P42336)"
  IC50: "< 50 nM"
- MOLECULE: "Cc1cc(C(C)Nc2ccccc2C(=O)O)c2oc(-c3ccc4[nH]ncc4c3)c(C)c(=O)c2c1 (single isomer, unassigned)"
  ASSAY_SYSTEM: "PI3K-α (PIK3CA) in MDA-MB-453 cells (Homo sapiens, UniProt P42336)"
  IC50: "< 50 nM"

Query: Output IC50 of Cc1cc(C(C)Nc2ccccc2C(=O)O)c2oc(-c3cccc4ocnc34)cc(=O)c2c1 (single isomer, unassigned)
Response: < 50 nM

Query: Output IC50 of Cc1cc([C@@H](C)Nc2ccc(C)nc2C(=O)O)c2oc(-c3ccc4nc(C)sc4n3)cc(=O)c2c1
Response: 100 to 500 nM

Query: Output IC50 of Cc1cc(C(C)Nc2ccccc2C(=O)O)c2oc(-c3ccc4c(c3)OCO4)c(C)c(=O)c2c1 (single isomer, unassigned)
Response: < 50 nM

Query: Output IC50 of Cc1cc(C(C)Nc2ccccc2C(=O)O)c2oc(-c3ccc4oc(C)nc4c3)cc(=O)c2c1 (single isomer, unassigned)
Response: > 500 nM

Query: Output IC50 of Cc1cc([C@@H](C)Nc2ccc(Br)nc2C(=O)O)c2oc(-c3ccc4nc(C)sc4n3)c(C)c(=O)c2c1
Response: < 50 nM

Query: Output IC50 of CC(Nc1ccc(Cl)nc1C(=O)O)c1cc(C(F)(F)F)cc2c(=O)cc(-c3ccc4c(cnn4C)c3)oc12 (single isomer, unassigned)
Response: 50 to 100 nM

Query: Output IC50 of Cc1cc(C(C)Nc2cccc(F)c2C(=O)O)c2oc(-c3nn(C)c4ccccc34)cc(=O)c2c1 (single isomer, unassigned)
Response: 50 to 100 nM

Query: Output IC50 of Cc1cc(C(C)Nc2ccccc2C(=O)O)c2oc(-c3ccc4ncccc4n3)cc(=O)c2c1 (single isomer, unassigned)
Response: < 50 nM
